Molecular target: T1, human OT7T175 (metastin receptor) (human, UniProt Q969F8 1-398)
T1 construct: expressed on CHO cells; also called hOT7T175; hOT7T175-expressed CHO cells
T1 sequence (Q969F8 whole entry L364H): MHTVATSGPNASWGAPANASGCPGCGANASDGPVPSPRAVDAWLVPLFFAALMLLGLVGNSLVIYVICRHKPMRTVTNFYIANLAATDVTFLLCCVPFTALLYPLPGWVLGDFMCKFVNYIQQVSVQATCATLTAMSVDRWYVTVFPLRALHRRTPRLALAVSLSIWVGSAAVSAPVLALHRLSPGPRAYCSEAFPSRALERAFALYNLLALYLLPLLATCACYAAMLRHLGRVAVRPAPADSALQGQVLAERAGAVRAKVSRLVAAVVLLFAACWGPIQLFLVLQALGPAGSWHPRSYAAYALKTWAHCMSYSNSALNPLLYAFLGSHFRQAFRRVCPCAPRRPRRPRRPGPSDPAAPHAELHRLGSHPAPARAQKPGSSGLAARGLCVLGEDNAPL
Assay: competition with Cy-5 metastin (40-54) on hOT7T175-CHO cells, FMAT
Protocol: hOT7T175-Expressed CHO cells were cultured in MEM-α medium (nucleic acid-free) containing 10% dialyzed serum. The medium was removed and the adhered cells were washed with PBS. Then, PBS containing 5 mM EDTA was added and the cells were scraped from a flask with a cell scraper. […]
Non-standard residues stand in square brackets, D forms with d. No end group written: not given here. Arg(Me) = CNC(=N)NCCC[C@H](N)C(=O)O; azaGly = NNC(=O)O
assay-metric: pIC50
pIC50 here: minus log base 10 of the concentration, concentration in moles per litre.

Sample answers from the record:
Find the recorded pIC50 belonging to [dY]N[dA]NSF[azaGly]L[Arg(Me)]F-NH2 (also called Compound No. 252) [[D-Tyr1,D-Ala3,AzaGly7,Arg(Me)9]MS10] and report it.
6.24

Find the recorded pIC50 belonging to [dY][dN]TNSF[azaGly]L[Arg(Me)]F-NH2 (also called Compound No. 284) [[D-Tyr1,D-Asn2,Thr3,AzaGly7,Arg(Me)9]MS10] and report it.
7.47

Further cases:
Find the recorded pIC50 belonging to YNWNSFGLRX (Nal(2)10; C-terminal amide, also called Compound No. 110) [[Nal(2)10]MS10] and report it.
7.62

Find the recorded pIC50 belonging to YNKNSFGLRF-NH2 (also called Compound No. 71) [[Lys3]MS10] and report it.
7.18
